system: A-427; assay: relative viability (nuclei count vs DMSO), 5 days (fraction); higher = more cells survive; details: first compound 50 µM
MEASURED_QUANTITY: relative viability
# print the numeric value only

The following compounds have reported results that may help.
O=C(O)CCCCC(CCSCc1ccccc1)SCc1ccccc1 (configuration not stated) [CPI-613] + N=C(N)NC(=N)NCCc1ccccc1 [Phenformin] (partner 250 µM)
0.267
O=C(O)CCCCC(CCSCc1ccccc1)SCc1ccccc1 (configuration not stated) [CPI-613] + Nc1nc2[nH]cc(CCc3ccc(C(=O)N[C@@H](CCC(=O)O)C(=O)O)cc3)c2c(=O)[nH]1 [Pemetrexed] (partner 0.2 µM)
0.928
O=C(O)CCCCC(CCSCc1ccccc1)SCc1ccccc1 (configuration not stated) [CPI-613] + COc1cccc2cc(-c3nc([C@H]4CC[C@H](C(=O)O)CC4)n4ncnc(N)c34)[nH]c12 [OSI-027] (partner 0.5 µM)
0.387
O=C(O)CCCCC(CCSCc1ccccc1)SCc1ccccc1 (configuration not stated) [CPI-613] + CCNC(=O)c1noc(-c2cc(C(C)C)c(O)cc2O)c1-c1ccc(CN2CCOCC2)cc1 [Luminespib] (partner 0.01 µM)
0.761
O=C(O)CCCCC(CCSCc1ccccc1)SCc1ccccc1 (configuration not stated) [CPI-613] + CC(=O)Nc1cccc(-n2c(=O)n(C3CC3)c(=O)c3c(Nc4ccc(I)cc4F)n(C)c(=O)c(C)c32)c1 [Trametinib] (partner 0.02 µM)
0.682

Return relative viability measured with A-427 given this compound: O=C(O)CCCCC(CCSCc1ccccc1)SCc1ccccc1 (configuration not stated) [CPI-613] + CS(=O)(=O)N1CCN(Cc2cc3nc(-c4cccc5[nH]ncc45)nc(N4CCOCC4)c3s2)CC1 [Pictilisib] (partner 1 µM)
0.66

State its relative viability on A-427: O=C(O)CCCCC(CCSCc1ccccc1)SCc1ccccc1 (configuration not stated) [CPI-613] + O=C(c1cc(Cc2n[nH]c(=O)c3ccccc23)ccc1F)N1CCN(C(=O)C2CC2)CC1 [Olaparib] (partner 8 µM)
0.711

* * *

tested on: EPLC-272H; test: relative viability (nuclei count vs DMSO), 5 days (fraction); higher = more cells survive; conditions: first compound 0.253 µM
MEASURED_QUANTITY: relative viability
Respond with the number and no other words.

Solved entries (count: 4):
O=c1[nH]c2ccccc2n1C1CCN(CCCC(c2ccc(F)cc2)c2ccc(F)cc2)CC1 [Pimozide] + C[C@@H](Oc1cc(-c2cnn(C3CCNCC3)c2)cnc1N)c1c(Cl)ccc(F)c1Cl [Crizotinib] (partner 1 µM)
0.686
O=c1[nH]c2ccccc2n1C1CCN(CCCC(c2ccc(F)cc2)c2ccc(F)cc2)CC1 [Pimozide] + CC(C)C[C@H](NC(=O)[C@H](Cc1ccccc1)NC(=O)c1cnccn1)B(O)O [Bortezomib] (partner 0.002 µM)
1.04
Cc1cnc(-c2cnc(NCCNc3ccc(C#N)cn3)nc2-c2ccc(Cl)cc2Cl)[nH]1 + CS(=O)(=O)N1CCN(Cc2cc3nc(-c4cccc5[nH]ncc45)nc(N4CCOCC4)c3s2)CC1 [Pictilisib] (partner 1 µM)
0.325
Cc1cnc(-c2cnc(NCCNc3ccc(C#N)cn3)nc2-c2ccc(Cl)cc2Cl)[nH]1 + Nc1ncn([C@H]2C[C@H](O)[C@@H](CO)O2)c(=O)n1 [Decitabine] (partner 2 µM)
0.353

I am curious: what relative viability value has been reported for O=c1[nH]c2ccccc2n1C1CCN(CCCC(c2ccc(F)cc2)c2ccc(F)cc2)CC1 [Pimozide] + Cc1nc(Nc2ncc(C(=O)Nc3c(C)cccc3Cl)s2)cc(N2CCN(CCO)CC2)n1 [Dasatinib] (partner 0.075 µM) ?
0.322

relative viability lookup needed for Cc1cnc(-c2cnc(NCCNc3ccc(C#N)cn3)nc2-c2ccc(Cl)cc2Cl)[nH]1 + Cc1nc(Nc2ncc(C(=O)Nc3c(C)cccc3Cl)s2)cc(N2CCN(CCO)CC2)n1 [Dasatinib] (partner 0.075 µM) , thanks.
0.374
